Cited source: patent US20230322805A1

# Experiment Description: Pharmacokinetics test in male ICR mice
# Type: in vivo
# Test Parameters: CD-1 (ICR), mouse, plasma, ip, I.P., 5 mg/kg

{"columns": ["Molecule", "Tmax"],
 "data": [
  ["CN(Cc1ccc(Cl)cc1)c1ncnc2c1[C@@H]1OC[C@H](CN2)N1S(=O)(=O)c1ccc([N+](=O)[O-])cc1 [Compound 117]", "1.67 h"]
]}

---

# Experiment Description: Pharmacokinetics test in male ICR mice
# Assay type: in vivo
# Test Parameters: male, CD-1 (ICR), mouse, plasma, ip, 5 mg/kg, intraperitoneal injection, read-out: half-life (converted)

{"columns": ["Molecular String", "half-life"],
 "data": [
  ["CN(Cc1ccc(Cl)cc1)c1ncnc2c1[C@@H]1OC[C@H](CN2)N1S(=O)(=O)c1ccc([N+](=O)[O-])cc1", "~6.6 h"]
]}
